Target: Neuronal acetylcholine receptor; alpha4/beta2 (Homo sapiens, UniProt P17787+P43681)
Assay: Agonist activity at human alpha4beta2 nAChR low sensitivity isoform transfected in SH-EP1 cells assessed as calcium flux by FLIPR assay relative to control
Assay type: cell-based
ASSAY_METRIC: Emax (%)
Provide the reading as a plain figure in %.

Past entries and their recorded results:
COMPOUND	UNIT_SYMBOL	Emax
O=C(CC1C=CCC1)N1CC2CC(C1)N2 (stereo not drawn)	%	89
C[C@H]1C[C@@H]1C(=O)N1CC2CC(C1)N2	%	67
O=C([C@@H]1C[C@H]1F)N1CC2CC(C1)N2	%	110
CCC(=O)N1CC2CC(C1)N2	%	98
C[C@H]1C[C@H]1C(=O)N1CC2CC(C1)N2	%	87

Neuronal acetylcholine receptor; alpha4/beta2 (Homo sapiens, UniProt P17787+P43681) / Emax / O=C(C1CCCC1)N1CC2CC(C1)N2 : value?
48

Another compound to check: O=C([C@H]1C[C@@H]1F)N1CC2CC(C1)N2
100

Another compound to check: O=C(C1CC1)N1CC2CC(C1)N2
110

Another compound to check: O=C(C1CC=CC1)N1CC2CC(C1)N2
93

Another compound to check: CC(C)C(=O)N1CC2CC(C1)N2
86

Another compound to check: C[C@@H]1C[C@H]1C(=O)N1CC2CC(C1)N2
110

Another compound to check: C[C@@H]1C[C@@H]1C(=O)N1CC2CC(C1)N2
88

Another compound to check: CC1(C)CC1C(=O)N1CC2CC(C1)N2 (stereo not drawn)
96
